Target: HCV NS3/4A protease (Hepatitis C virus genotype 1b, UniProt O92972)
Construct: HCV NS3/4A protease; purchased AnaSpec, San Jose, Calif., USA lot# Lot 046-047 (screening); lot# Lot 046-079 (mechanism study); catalogue number not given
Sequence (O92972 1013-1207, looked up, natural form): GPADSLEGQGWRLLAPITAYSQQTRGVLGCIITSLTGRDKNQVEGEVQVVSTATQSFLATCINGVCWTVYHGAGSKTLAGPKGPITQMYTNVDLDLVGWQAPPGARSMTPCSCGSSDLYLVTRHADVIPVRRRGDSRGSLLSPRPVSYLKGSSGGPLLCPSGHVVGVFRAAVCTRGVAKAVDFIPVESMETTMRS
Assay: HCV protease inhibition assay (SensoLyte 520 HCV Protease Assay Kit, FRET peptide substrate)
Assay type: biochemical
Conditions: enzyme 0.5 μg/ml, 30 min at room temperature (28° C.); read-out: IC50 against HCV protease (converted)
Recorded metric: IC50 (µM)
Answers are plain numbers, in µM.

1) CC(C)=CCOc1ccc(C2C(=O)N(O)C(=O)C2CC(C)C)cc1 (centres unmarked) [Compound 5]; 60.6
2) CC(C)=CCOc1ccc(C2=C(CC(C)C)C(=O)OC2=O)cc1 [Compound 1]; 2.86
3) CCCCCCCCCCCC1=C(O)C(=O)C=C(O)C1=O [Embelin, reference compound]; 13.9
4) CC(C)=CCOc1ccc(C2=C(CC(C)C)C(=O)N(O)C2=O)cc1 [Compound 3]; 8.8
5) CC(C)=CCOc1ccc(/C(C(=O)NCC(=O)O)=C(\CC(C)C)C(=O)O)cc1 [Compound 8]; 148

I would be grateful if you could provide IC50 for each of the following entries.
1. CC(C)=CCOc1ccc(/C(C(=O)O)=C(\CC(C)C)C(=O)O)cc1 [Compound 6]
2. CC(C)=CCOc1ccc(C2C(=O)N(O)C(=O)C2CC(C)C)cc1 (centres unmarked) [Compound 4]

Reply text:
[19.9, 60.3]
